Sequence of the target: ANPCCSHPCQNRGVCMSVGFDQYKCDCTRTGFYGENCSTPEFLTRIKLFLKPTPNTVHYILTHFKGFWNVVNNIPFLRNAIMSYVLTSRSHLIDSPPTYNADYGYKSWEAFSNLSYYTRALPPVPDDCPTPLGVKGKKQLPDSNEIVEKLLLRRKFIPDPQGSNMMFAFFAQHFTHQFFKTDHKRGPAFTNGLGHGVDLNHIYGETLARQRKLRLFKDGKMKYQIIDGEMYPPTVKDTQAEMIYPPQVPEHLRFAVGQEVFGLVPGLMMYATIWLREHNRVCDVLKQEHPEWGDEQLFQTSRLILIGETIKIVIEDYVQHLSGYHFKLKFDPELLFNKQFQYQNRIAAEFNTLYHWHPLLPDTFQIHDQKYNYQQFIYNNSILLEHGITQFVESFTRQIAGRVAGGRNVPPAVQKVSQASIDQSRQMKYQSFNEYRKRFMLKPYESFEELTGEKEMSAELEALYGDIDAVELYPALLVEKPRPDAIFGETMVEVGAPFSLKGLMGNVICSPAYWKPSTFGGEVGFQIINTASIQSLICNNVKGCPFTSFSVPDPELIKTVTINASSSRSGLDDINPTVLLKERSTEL
pIC50: −log10 of the molar value.
Label rule, in plain words: pIC50 of 6 and up is 1, under 6 is 0.

Solved entries (count: 5):
COC(=O)c1cc(-c2ccc(I)cc2)n(-c2ccc(S(C)(=O)=O)cc2)n1 [compound 10]
0
CS(=O)(=O)c1ccc(-n2nc(C(F)(F)F)cc2-c2ccc(I)cc2)cc1 [compound 8]
1
COC(=O)c1cc(-c2cccc(I)c2)n(-c2ccc(S(C)(=O)=O)cc2)n1 [compound 9]
0
COC(=O)c1cc(-c2cccc(I)c2)n(-c2ccc(S(N)(=O)=O)cc2)n1 [compound 2]
0
COC(=O)c1cc(-c2ccc(I)cc2)n(-c2ccc(S(N)(=O)=O)cc2)n1 [compound 3]
1

Query :: Record NS(=O)(=O)c1ccc(-n2nc(CCC(=O)O)cc2-c2cccc(I)c2)cc1 [compound 5] ; criterion: pIC50 no lower than 6. Met?
Result :: 0

Query :: Next: NS(=O)(=O)c1ccc(-n2nc(CCC(=O)O)cc2-c2ccc(I)cc2)cc1 [compound 6]
Result :: 0

Query :: Next: CCOC(=O)c1cc(-c2ccc(I)cc2)n(-c2ccc(S(N)(=O)=O)cc2)n1 [compound 4]
Result :: 1

Query :: Next: CS(=O)(=O)c1ccc(-n2nc(C(F)(F)F)cc2-c2cccc(I)c2)cc1 [compound 7]
Result :: 1
